// Kd collected for Cathepsin S (Homo sapiens, UniProt P25774)
Please give a number only; it is taken to be in nM.

Example entries and their recorded answers appear below.
>  <COMPOUND>
N#C[C@H](CCc1ccccc1)NC(=O)[C@@H](CC(=O)N1CCOCC1)CC1CCCCC1

>  <MEASUREMENT_TARGET>
Cathepsin S (Homo sapiens, UniProt P25774)
Sequence (P25774 whole entry): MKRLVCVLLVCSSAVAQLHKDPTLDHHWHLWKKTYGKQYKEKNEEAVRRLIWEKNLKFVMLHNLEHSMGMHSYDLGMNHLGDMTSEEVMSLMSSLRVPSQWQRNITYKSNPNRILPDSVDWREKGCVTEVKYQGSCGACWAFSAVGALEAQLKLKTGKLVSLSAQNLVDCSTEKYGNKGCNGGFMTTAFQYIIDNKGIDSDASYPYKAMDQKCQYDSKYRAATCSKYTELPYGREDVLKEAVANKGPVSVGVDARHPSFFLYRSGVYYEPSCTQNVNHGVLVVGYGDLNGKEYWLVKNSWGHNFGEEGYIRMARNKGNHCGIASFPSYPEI

>  <UNIT_OF_MEASURE>
nM

>  <Kd>
25

$$$$
>  <COMPOUND>
N#CC1(NC(=O)[C@@H](CC(=O)N2CCOCC2)CC2CCCCC2)CCN(Cc2ccccc2)CC1

>  <MEASUREMENT_TARGET>
Cathepsin S (Homo sapiens, UniProt P25774)

>  <UNIT_OF_MEASURE>
nM

>  <Kd>
52

$$$$
>  <COMPOUND>
N#CC1(NC(=O)[C@@H](CC(=O)N2CCOCC2)CC2CCCCC2)CC1

>  <MEASUREMENT_TARGET>
Cathepsin S (Homo sapiens, UniProt P25774)

>  <UNIT_OF_MEASURE>
nM

>  <Kd>
12

$$$$
>  <COMPOUND>
CC(C)CN1CC[C@@](C#N)(NC(=O)[C@@H](CC(=O)N2CCOCC2)CC2CCCCC2)C1

>  <MEASUREMENT_TARGET>
Cathepsin S (Homo sapiens, UniProt P25774)

>  <UNIT_OF_MEASURE>
nM

>  <Kd>
53.3

$$$$
>  <COMPOUND>
N#C[C@H](COCc1ccccc1)NC(=O)[C@@H](CC(=O)N1CCOCC1)CC1CCCCC1

>  <MEASUREMENT_TARGET>
Cathepsin S (Homo sapiens, UniProt P25774)

>  <UNIT_OF_MEASURE>
nM

>  <Kd>
4.39

$$$$

IN: I have this compound here, CC1(C[C@H](CC(=O)N2CCOCC2)C(=O)N[C@]2(C#N)CCN(C3CCCCC3)C2)CCCCC1 , and I need its recorded Kd.
OUT: 77.3

IN: Same for N#C[C@@]1(NC(=O)[C@@H](CC(=O)N2CCOCC2)CC2CCCCC2)CCN(C2CCCCCC2)C1
OUT: 11

IN: Record: N#C[C@@]1(NC(=O)[C@@H](CC(=O)N2CCOCC2)CC2Cc3ccccc3C2)CCN(C2CCCCC2)C1
OUT: 23.1

IN: Now give it for CN1CCC(C#N)(NC(=O)[C@@H](CC(=O)N2CCOCC2)CC2CCCCC2)CC1 too.
OUT: 177

IN: Can you handle CC1CCC(C[C@H](CC(=O)N2CCOCC2)C(=O)N[C@]2(C#N)CCN(C3CCCCC3)C2)CC1 (stereo not given in full) next?
OUT: 13.8
